Measured on: human 5-HT6 receptor (Homo sapiens)
Construct: expressed in transfected cells
Sequence (P50406 whole entry): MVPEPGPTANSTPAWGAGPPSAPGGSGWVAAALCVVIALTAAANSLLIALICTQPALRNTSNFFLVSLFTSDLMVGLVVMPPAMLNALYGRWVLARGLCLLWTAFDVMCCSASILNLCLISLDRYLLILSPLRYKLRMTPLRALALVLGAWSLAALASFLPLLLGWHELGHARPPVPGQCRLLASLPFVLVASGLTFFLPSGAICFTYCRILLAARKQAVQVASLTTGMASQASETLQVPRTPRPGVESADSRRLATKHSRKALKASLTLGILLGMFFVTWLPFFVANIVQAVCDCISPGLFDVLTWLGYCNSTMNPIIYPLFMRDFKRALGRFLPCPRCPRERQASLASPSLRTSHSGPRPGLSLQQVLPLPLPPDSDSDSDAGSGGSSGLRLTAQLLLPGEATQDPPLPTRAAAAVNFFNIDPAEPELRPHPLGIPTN
Assay notes: GPCR radioligand binding assay, [3H]-LSD displacement, HEK293 membranes
Assay conditions: 5-HT6; average of exp_1 and exp_2
Is %inh 5-HT6 average at least 30%? Then Condition met. If not, Condition not met.

| Molecule | Cat |
| --- | --- |
| COC(=O)c1c(C)nc(C2CC2)[nH]c1=O | Condition met |
| O=c1[nH]ncc2c1oc1ccccc12 | Condition not met |
| c1ccc2sc(N3CCNCC3)nc2c1 | Condition met |
| O=C1CCCc2occc21 | Condition met |
| FC1(F)CNCC(F)(F)O1 | Condition met |
| O=C(c1ccccc1)N1CCC(CO)CC1 | Condition met |
| O=C1NC(=O)C2(CCc3ccccc32)N1 (stereo not shown) | Condition met |
| N#CCCN1CCc2ccccc21 | Condition not met |
| COc1cccc(NC2=NCCCCC2)c1 | Condition not met |
| Nc1ccc(SC(F)F)cc1 [D1] | Condition met |

* * *

Measured on: human 5-HT7b receptor (Homo sapiens)
Construct: expressed in transfected cells
Assay notes: GPCR radioligand binding assay, [3H]-5-CT displacement, HEK293 membranes
Assay conditions: 5-HT7; average of exp_1 and exp_2; read-out: %inh 5-HT7 average
Experimental endpoint: inhibition at 10 µM (%)

| Compound | Measured on | Experimental endpoint | Recorded number |
| --- | --- | --- | --- |
| Oc1ccccc1N1CCCCC1 | human 5-HT7b receptor (Homo sapiens) | inhibition at 10 µM | -0.0781 |
| O=C(O)C1CCN(c2ncccn2)CC1 | human 5-HT7b receptor (Homo sapiens) | inhibition at 10 µM | -8.55 |
| NC(=O)N1CCC(C(=O)O)CC1 | human 5-HT7b receptor (Homo sapiens) | inhibition at 10 µM | -6.41 |
| O=C(c1ccccc1F)N1CCNCC1 | human 5-HT7b receptor (Homo sapiens) | inhibition at 10 µM | -6 |
| O=C1NC(=O)/C(=C\c2cccs2)N1 | human 5-HT7b receptor (Homo sapiens) | inhibition at 10 µM | 3.77 |
| CC(=O)c1sc(-c2ccc(O)cc2)nc1C [E1] | human 5-HT7b receptor (Homo sapiens) | inhibition at 10 µM | 43 |
| Cc1cc2ccccc2nc1N | human 5-HT7b receptor (Homo sapiens) | inhibition at 10 µM | 1.66 |
| c1ccc(Nc2nncs2)cc1 | human 5-HT7b receptor (Homo sapiens) | inhibition at 10 µM | -12 |
| O=C(O)c1cnc(-c2ccccc2)s1 | human 5-HT7b receptor (Homo sapiens) | inhibition at 10 µM | -18 |
| c1cnc2ncccc2c1 | human 5-HT7b receptor (Homo sapiens) | inhibition at 10 µM | 34 |
| Nc1nnc2ccccn12 | human 5-HT7b receptor (Homo sapiens) | inhibition at 10 µM | -0.039 |
| c1cnc2cccnc2c1 | human 5-HT7b receptor (Homo sapiens) | inhibition at 10 µM | 35 |

* * *

Measured on: bovine factor Xa (Bos taurus)
Construct: bovine factor Xa, Chromogenix, 2 nkat/mL; purchased Chromogenix
Sequence (P00743 234-492 limits assumed): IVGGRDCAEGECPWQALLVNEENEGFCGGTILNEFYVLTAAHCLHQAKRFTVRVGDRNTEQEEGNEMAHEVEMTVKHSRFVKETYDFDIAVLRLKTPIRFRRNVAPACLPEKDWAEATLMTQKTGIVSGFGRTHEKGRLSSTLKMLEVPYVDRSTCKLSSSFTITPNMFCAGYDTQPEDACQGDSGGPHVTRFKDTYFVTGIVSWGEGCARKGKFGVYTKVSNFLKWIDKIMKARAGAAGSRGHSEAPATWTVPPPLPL
Sequence (P00743 41-180 partner limits assumed): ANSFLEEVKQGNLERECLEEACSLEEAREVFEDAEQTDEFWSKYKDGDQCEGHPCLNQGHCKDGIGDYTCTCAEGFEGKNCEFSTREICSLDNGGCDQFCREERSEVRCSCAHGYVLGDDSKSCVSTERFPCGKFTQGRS
Assay notes: Protease inhibitory assay, chromogenic substrate S-2222
Format: biochemical
Assay conditions: FactorXa primary screening; substrate 100 µM; cmpd conc 200 µM
Collected V0 / Vi values appear next to each entry.

| Compound | V0 / Vi |
| --- | --- |
| CN1CC(=O)NC1=O [SX-B10] | 0.98 |
| COc1cccc(NC2=NCCCCC2)c1 [SX-E8] | 0.96 |
| COc1ccc(C2=CCNCC2)cc1 [SX-G1] | 0.93 |
| O=C(c1ccncc1)N1CCNCC1 [SX-E2] | 0.96 |
| Oc1ccc(C2CCNCC2)cc1 [SX-E11] | 0.73 |
| O=C(O)c1cccc(Nc2ncccn2)c1 [SX-F5] | 0.98 |
| Oc1cnc(-c2ccccc2)nc1 [SX-F11] | 1.00 |
| Cc1cc2ccccc2nc1N [SX-A1] | 1.83 |
| Nc1ccc(-c2ccccc2)cc1C(=O)O [SX-G9] | 1.04 |
| Cn1c(CO)nc2ccccc21 [SX-G2] | 0.96 |

* * *

Measured on: human 5-HT7b receptor (Homo sapiens, UniProt P34969)
Construct: expressed in transfected cells
Sequence (P34969 1-432): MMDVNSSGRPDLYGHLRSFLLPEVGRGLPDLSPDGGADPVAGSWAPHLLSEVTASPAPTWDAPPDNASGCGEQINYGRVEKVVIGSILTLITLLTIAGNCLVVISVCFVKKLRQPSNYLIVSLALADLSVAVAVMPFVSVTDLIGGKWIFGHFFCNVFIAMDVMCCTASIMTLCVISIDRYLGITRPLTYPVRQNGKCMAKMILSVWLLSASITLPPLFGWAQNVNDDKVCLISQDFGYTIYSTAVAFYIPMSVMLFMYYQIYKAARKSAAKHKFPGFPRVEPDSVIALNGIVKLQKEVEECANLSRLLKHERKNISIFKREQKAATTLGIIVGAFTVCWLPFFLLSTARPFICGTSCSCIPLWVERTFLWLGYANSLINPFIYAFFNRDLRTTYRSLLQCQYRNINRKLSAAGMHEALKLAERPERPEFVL
Assay notes: GPCR radioligand binding assay, [3H]-5-CT displacement, HEK293 membranes
Assay conditions: 5-HT7; replicate exp_1; read-out: %inh 5-HT7 exp_1

| Compound | Measured on | inhibition at 10 µM (%) |
| --- | --- | --- |
| c1ccc(Nc2nncs2)cc1 | human 5-HT7b receptor (Homo sapiens, UniProt P34969) | -3.33 |
| CC1CCc2sc(C(=O)O)cc2C1 (stereo not shown) | human 5-HT7b receptor (Homo sapiens, UniProt P34969) | -4.73 |
| O=C(c1ccccc1F)N1CCNCC1 | human 5-HT7b receptor (Homo sapiens, UniProt P34969) | -4.53 |
| c1cnc2ncccc2c1 | human 5-HT7b receptor (Homo sapiens, UniProt P34969) | 32 |
| O=C(O)c1cnc(-c2ccccc2)s1 | human 5-HT7b receptor (Homo sapiens, UniProt P34969) | -6 |
| Oc1ccccc1N1CCCCC1 | human 5-HT7b receptor (Homo sapiens, UniProt P34969) | -4.73 |
| Cn1c(N)nc2ccccc21 | human 5-HT7b receptor (Homo sapiens, UniProt P34969) | -3 |
| NC(=O)N1CCC(C(=O)O)CC1 | human 5-HT7b receptor (Homo sapiens, UniProt P34969) | -8 |
| O=C(O)C1CCN(c2ncccn2)CC1 | human 5-HT7b receptor (Homo sapiens, UniProt P34969) | 3.77 |
| Cc1cc2ccccc2nc1N | human 5-HT7b receptor (Homo sapiens, UniProt P34969) | 7 |

* * *

Measured on: human 5-HT1A receptor (Homo sapiens)
Construct: expressed in transfected cells
Sequence (P08908 1-422): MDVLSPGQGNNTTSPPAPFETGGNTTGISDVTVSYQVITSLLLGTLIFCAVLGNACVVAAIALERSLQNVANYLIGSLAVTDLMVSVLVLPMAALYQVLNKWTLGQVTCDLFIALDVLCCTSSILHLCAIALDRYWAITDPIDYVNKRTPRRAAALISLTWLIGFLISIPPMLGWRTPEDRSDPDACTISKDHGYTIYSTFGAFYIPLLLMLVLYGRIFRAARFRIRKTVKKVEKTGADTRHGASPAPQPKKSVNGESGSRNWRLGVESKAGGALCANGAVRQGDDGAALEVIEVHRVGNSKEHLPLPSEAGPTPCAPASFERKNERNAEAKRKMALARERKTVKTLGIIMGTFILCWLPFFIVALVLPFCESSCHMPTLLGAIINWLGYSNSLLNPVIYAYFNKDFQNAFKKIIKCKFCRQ
Assay notes: GPCR radioligand binding assay, [3H]-8-OH-DPAT displacement, HEK293 membranes
Assay conditions: 5-HT1A; average of exp_1 and exp_2; read-out: %inh 5-HT1A average

| Molecule | Measured on | inhibition at 10 µM |
| --- | --- | --- |
| Cc1cc2ccccc2nc1N [SX001] | human 5-HT1A receptor (Homo sapiens) | -13% |
| NC(=O)N1CCC(C(=O)O)CC1 [SX048] | human 5-HT1A receptor (Homo sapiens) | 0.751% |
| Nc1nnc2ccccn12 [SX005] | human 5-HT1A receptor (Homo sapiens) | -14% |
| c1cnc2ncccc2c1 [SX003] | human 5-HT1A receptor (Homo sapiens) | 22% |
| CC1CCc2sc(C(=O)O)cc2C1 (centres unmarked) [SX045] | human 5-HT1A receptor (Homo sapiens) | -1% |
| CS(=O)(=O)Nc1ccc(C(=O)O)cc1 [SX084] | human 5-HT1A receptor (Homo sapiens) | 9% |
| CC(=O)c1sc(-c2ccc(O)cc2)nc1C [E1] | human 5-HT1A receptor (Homo sapiens) | -8.44% |
| O=C(O)c1cnc(-c2ccccc2)s1 [F3] | human 5-HT1A receptor (Homo sapiens) | 2.52% |
| c1cnc2cccnc2c1 [SX002] | human 5-HT1A receptor (Homo sapiens) | -0.719% |
| Cn1c(N)nc2ccccc21 [A6] | human 5-HT1A receptor (Homo sapiens) | -7% |
| O=C1NC(=O)/C(=C\c2cccs2)N1 [H12] | human 5-HT1A receptor (Homo sapiens) | 3.44% |

* * *

Measured on: human 5-HT7b receptor (Homo sapiens, UniProt P34969)
Construct: expressed in transfected cells
Assay notes: GPCR radioligand binding assay, [3H]-5-CT displacement, HEK293 membranes
Assay conditions: 10 µM

| Molecule | 5-HT7 % Inhibition by plate position |
| --- | --- |
| Cc1ccc(-c2ccc(O)cc2)cc1 | 0% |
| Cc1ccc(CCNc2ccccc2)cn1 | 0% |
| O=C1CNCCN1c1ccccc1 | 0% |
| COc1ccccc1C1CCNCC1 | 73% |
| COC(=O)c1c(C)nc(C2CC2)[nH]c1=O | 23% |
| CC1(C)OC(=O)c2cc(Br)c(O)cc2O1 | 0.891% |
| O=c1ccc2c([nH]1)CCCC2 | 1% |
| Oc1cnc(-c2ccccc2)nc1 | 0.572% |
| N[C@H]1c2ccccc2C[C@H]1CO | 6% |
| N#Cc1ccc2ncsc2c1 | 0% |
| COc1ccc(CN2CCNCC2)cc1F | 0% |
| c1ccc2c(N3CCNCC3)ccnc2c1 | 16% |
| Cc1cc(C)c2c(=O)[nH]n(C)c2n1 | 11% |
| Fc1ccc(CC2CCCNC2)cc1 (stereo not drawn) | 22% |
| CCc1nccn1CC(=O)O | 0% |
| O=C1CCCc2occc21 | 0% |
| CC(=O)c1ccc2c(c1)CNCC2 | 4% |
| NCC1(c2ccccc2)CCOCC1 | 6% |
| O=C(CN1CCNCC1)c1ccccc1 | 8% |
| COc1cccc(NC2=NCCCCC2)c1 | 0% |
| CCc1ccc(NC2=NCCCS2)cc1 [D2] | 6% |
| Brc1ccc(-c2ccon2)cc1 | 5.57% |
| N#CCCN1CCc2ccccc21 | 3% |
| Fc1ccc2c(C3CCNCC3)c[nH]c2c1 | 78% |
| O=C1CCN(c2ccccn2)CC1 | 29% |
| O=C1CC(CSc2ccc(Cl)cc2)=NN1 | 0% |
| CS(=O)(=O)c1ccc(N2CCNCC2)cc1 | 35% |
| CCN(CC)c1cccc(C)c1 | 7.56% |
| O=c1[nH]c2c(s1)CCC2 | 0.592% |
| Cn1nc(C(F)(F)F)cc1O | 9% |
| C1=C[C@H]2O[C@@H]1c1ccccc12 | 0% |
| Cc1cc(N)no1 | 1.49% |
| CCn1cnc2ccccc21 | 0% |
| Cc1cnc(C(F)(F)F)cn1 | 11% |
| O=C(CN1CCCC1)c1ccccc1Cl | 3.47% |
| CCCN1C(=O)CC(=O)NC1=S | 10% |
| O=C1CSC(Nc2ccc(F)cc2)=N1 | 0% |
| CN(C)c1cc(CN)ccn1 | 0% |
| O=C(NC1CC1)c1ccccc1O | 0% |
| O=C(O)CC1CCC(=O)N1 (stereo not drawn) | 7% |
| O=C1CCN(c2ccncc2)CC1 | 3.28% |
| FC1(F)CNCC(F)(F)O1 | 0% |
| COc1ccccc1N1CCNCC1 | 72% |
| O=C1NC2(CCCC2)Nc2ccccc21 | 5% |
| O=C(c1ccncc1)N1CCNCC1 [E2] | 3.34% |
| c1cnc2c(c1)NCCC2 | 0% |
| Nc1ccc(SC(F)F)cc1 [D1] | 8% |
| O=C1NC(=O)C2(CCc3ccccc32)N1 (stereo not drawn) | 3.8% |
| NC1CCc2ccccc21 (stereo not drawn) | 28% |
| Cc1ccc(C)n1Cc1ccccc1Cl | 0% |
| CC(CN)N1CCc2sccc2C1 (stereo not drawn) | 8% |
| Cc1nc(-c2ccccc2)cs1 | 0% |
| O=C(O)c1ccc(CN2CCOCC2)cc1 | 17% |
| Nc1ccc(-c2ccccc2)cc1C(=O)O | 15% |
| O=C(Nc1ccccc1)C1CC1 | 0% |
| O=C(O)C1CCCN(C(=O)N2CCCC2)C1 (stereo not drawn) | 8.53% |
| N#CC1CCS(=O)(=O)C1 (stereo not drawn) | 20% |
